Parameter: growth inhibition. Scope: all listed entries.
- Assay: NCI Yeast Anticancer Drug Screen. Data for the cln2 rad14 strain (AID 165);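 note: 0% = growth equal to vehicle treated cultures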
- Cond: S. cerevisiae cln2 rad14 strain, at 50.0 µM, active compounds read high
This is part of a sample that, as a whole, favours compounds with a hit. Of some 79,000 tested, about 15% had one in any assay.

Molecule | Measurement unit | growth inhibition
Cc1ccc(Sc2cccc3c2C(=O)c2c(Sc4ccc(C)cc4)cccc2C3(Br)c2ccccc2)cc1 | % | -27.2
CSc1c(C#N)c2c(Cl)ncnc2n1C(C)=O | % | -71.5
OCc1ccc2[n+](c1)CCC1c3ccccc3NC21 (stereo unspecified) | % | -8.4
c1ccc(OCCCCN2CCNCC2)cc1 | % | -10.1
O=C(Nc1ccccc1F)Oc1ccc(Cl)cc1Cl | % | 26.8
Nc1ccc(S(=O)(=O)O)cc1Cl | % | -9.9
O=C(CC(=O)c1ccc(-c2ccc(C(=O)CC(=O)c3ccccc3)cc2)cc1)c1ccccc1 | % | -34.4
CC1(C)OC2(CC1C1(C)C=CC(=O)O1)CC1C(O)(CCC34CC13C(=O)OC4c1ccoc1)O2 (stereo unspecified) | % | 6.2
O=C(O)CNC(=O)C(Cc1ccccc1)NC(=O)CNC(=O)C(CSC(c1ccccc1)c1ccccc1)NC(=O)C(CSC(c1ccccc1)(c1ccccc1)c1ccccc1)N1C(=O)c2ccccc2C1=O (stereo unspecified) | % | -17.9
COc1ccc(C2NC(C(=O)O)Cc3c2[nH]c2ccccc32)cc1OC (stereo unspecified) | % | -12.9
N=[N+]=CC(=O)OCC(N)C(=O)O (stereo unspecified) | % | 54.6

Origin of the recorded values: PubChem BioAssay (NCI)
